Origin of values: PubChem BioAssay

Measured target: Concanavalin-A (Canavalia ensiformis)
Assay protocol: compounds binding concanavalin A lectin – biochemical, small-molecule microarray, Alexa647 label, 635 nm, artefact control for SMM control protein annotation, primary screen (AID 1127);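 further: z combines 667 nm emission intensity with signal-to-noise across three replicate slides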
Experimental conditions: ConA-A647 binding fluorescence, higher = more signal
Observable: composite z-score

[[record]]
compound = "O=[N+]([O-])c1ccc(C[n+]2ccc(-c3ccc(CO)cc3)cc2)o1"
measured_target = "Concanavalin-A (Canavalia ensiformis)"
observable = "composite z-score"
numeric_result = 0.648

[[record]]
compound = "COC(=O)C(CC#Cc1ccc2c(c1)[C@]1(C(=O)N2)[C@H](c2ccc(OCCO)cc2)N2[C@H](c3ccccc3)[C@H](c3ccccc3)OC(=O)[C@H]2[C@@H]1C(=O)O)C(=O)OC"
measured_target = "Concanavalin-A (Canavalia ensiformis)"
observable = "composite z-score"
numeric_result = 1.15

[[record]]
compound = "CCCCC(O)C1C=CC2C(=O)N(Cc3ccccc3)C(=O)C2N1n1cnnc1 (centres undefined)"
measured_target = "Concanavalin-A (Canavalia ensiformis)"
observable = "composite z-score"
numeric_result = 0.216

[[record]]
compound = "CC1(C)[C@@H]2CC(C(O)C3C=CC4C(=O)N(c5ccccc5)C(=O)C4N3Nc3ccccc3F)=C[C@@H]1C2 (some centres undefined)"
measured_target = "Concanavalin-A (Canavalia ensiformis)"
observable = "composite z-score"
numeric_result = 1.09


====

Assay protocol: S6 kinase pathway phospho-S6 level changes – cell-based, A549, cytoblot, luminescence, serum-stimulated, primary screen (AID 1158);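 further: serum-stimulated A549 lung adenocarcinoma cells; signal is phosphorylated S6 detected by cytoblot immunostaining with HRP secondary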
Experimental conditions: 5 h, higher = more signal
Observable: z-score

[[record]]
smiles_record = "COC(=O)[C@@]1(Cc2ccccc2)[C@H]2c3cc(C(=O)N(C)C)n(Cc4ccccn4)c3C[C@H]2CN1C(=O)c1ccccc1"
observable = "z-score"
result = -0.733

[[record]]
smiles_record = "OCc1ccc(-c2cc[n+](Cc3cccc(OC(F)(F)F)c3)cc2)cc1"
observable = "z-score"
result = -0.104

[[record]]
smiles_record = "COCCOC(=O)N1C(=O)[C@@]2(c3cc(C#CC4(O)CCCCCC4)ccc31)[C@H](C(=O)N1CCN(c3ncccn3)CC1)[C@H]1C(=O)O[C@H](c3ccccc3)[C@H](c3ccccc3)N1[C@@H]2c1ccc(O)cc1"
observable = "z-score"
result = 0.274

[[record]]
smiles_record = "Cc1ccc(-c2cccc(=O)o2)cc1"
observable = "z-score"
result = -0.102

[[record]]
smiles_record = "COCC(=C=CC[C@@H](O)c1ccccc1OCCO)C[C@@H](O)c1ccccn1"
observable = "z-score"
result = -0.456

[[record]]
smiles_record = "CC(C)[Si](C#C[Si](C(C)C)(C(C)C)C(C)C)(O[C@H](C)c1cn(Cc2cccc(Cl)c2)nn1)C(C)C"
observable = "z-score"
result = 0.712


====

Test system: Plasmodium falciparum Sir2 (PF13_0152, Sir2A)
Assay protocol: Plasmodium falciparum Sir2A binding compounds – biochemical, small-molecule microarray, 635 nm fluorescence, primary screen (AID 1098);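 further: score merges spot fluorescence intensity with its signal-to-noise ratio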
Experimental conditions: fluorescence 635 nm, higher = more signal
Returns one of fulfilled or not fulfilled; fulfilled when composite z-score is >= 0.8.

[[record]]
compound = "O=C(Nc1cc(Br)ccc1C(=O)NCc1cccc(O)c1)c1ccccc1"
measured_target = "Plasmodium falciparum Sir2 (PF13_0152, Sir2A)"
category = "not fulfilled"

[[record]]
compound = "CCOC(=O)C[C@H]1[C@H](OC(=O)c2cc3ccccc3oc2=O)[C@@H](NC(=O)c2ccc3ccccc3n2)c2cc(OCCCO)ccc2N1C(=O)c1ccc2ccccc2n1"
measured_target = "Plasmodium falciparum Sir2 (PF13_0152, Sir2A)"
category = "not fulfilled"

[[record]]
compound = "C=C(/C(=C/C[C@@H](OC(C)=O)c1ccccc1OCCO)c1cnc2ccccc2c1)C(C)C"
measured_target = "Plasmodium falciparum Sir2 (PF13_0152, Sir2A)"
category = "fulfilled"

[[record]]
compound = "O=C1c2ccccc2[C@](Cc2ccccc2I)(C(=O)NCC(F)(F)F)[C@H](c2ccc(CO)cc2)N1Cc1ccccc1"
measured_target = "Plasmodium falciparum Sir2 (PF13_0152, Sir2A)"
category = "fulfilled"

[[record]]
compound = "Cc1ccc(S[C@]2(C(=O)NCC(C)C)CC(=O)N(C3CCCCC3)[C@@H]2c2ccc(CO)cc2I)cc1"
measured_target = "Plasmodium falciparum Sir2 (PF13_0152, Sir2A)"
category = "not fulfilled"

[[record]]
compound = "Cc1cc(C)c(C(O)C2C=CC3C(=O)N(c4ccccc4)C(=O)C3N2Nc2ccc([N+](=O)[O-])cc2)c(C)c1 (configuration not stated)"
measured_target = "Plasmodium falciparum Sir2 (PF13_0152, Sir2A)"
category = "fulfilled"

[[record]]
compound = "C=CCC(OC(C)=O)[C@@H]1[C@@H](N(Cc2cc3ccccc3o2)C(=O)Cc2ccc(OC)cc2)c2cc(OCCCO)ccc2N1C(=O)c1ccc(-c2ccccc2)cc1 (some centres not stated)"
measured_target = "Plasmodium falciparum Sir2 (PF13_0152, Sir2A)"
category = "not fulfilled"


====

Below, each of the molecules is paired with its reported composite z-score value.
Measured target: Follistatin (Homo sapiens) (UniProt P19883)
Sequence (P19883 whole entry, looked up): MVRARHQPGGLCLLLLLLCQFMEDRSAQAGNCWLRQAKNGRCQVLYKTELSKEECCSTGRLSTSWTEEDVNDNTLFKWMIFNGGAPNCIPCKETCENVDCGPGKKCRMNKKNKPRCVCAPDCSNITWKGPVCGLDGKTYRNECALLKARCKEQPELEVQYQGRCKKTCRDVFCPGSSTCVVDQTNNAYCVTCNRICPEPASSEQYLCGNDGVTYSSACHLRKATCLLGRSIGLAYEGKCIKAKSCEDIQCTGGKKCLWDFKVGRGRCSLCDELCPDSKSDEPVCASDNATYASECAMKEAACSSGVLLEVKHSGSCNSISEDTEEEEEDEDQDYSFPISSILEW
Assay protocol: FST protein binding to printed compounds – biochemical, small-molecule microarray, 635/667 nm fluorescence, primary screen (AID 1132)
Experimental conditions: 635 nm fluorescence, higher = more signal
Observable: composite z-score

[[record]]
molecule = "C[C@@]1([C@@H](NC(=O)c2cccs2)c2ccc(-c3ccccc3)cc2)C[C@H]1C1CCCCC1"
result = -0.27

[[record]]
molecule = "COCCOC(=O)N1C(=O)[C@@]2(c3cc(C#CC4(O)CCCCCC4)ccc31)[C@H](C(=O)N1CCN(c3ncccn3)CC1)[C@H]1C(=O)O[C@H](c3ccccc3)[C@H](c3ccccc3)N1[C@@H]2c1ccc(O)cc1"
result = 0.91

[[record]]
molecule = "COCCCNC(=O)[C@@H]1c2ccccc2C(=O)N(Cc2cc(F)cc(C(F)(F)F)c2)[C@H]1c1ccc(CO)cc1"
result = -0.252

[[record]]
molecule = "COC(=O)[C@@]1(Cc2ccc(F)cc2)[C@H]2c3cc(C(=O)N4CCCC4)n(Cc4ccccc4)c3C[C@H]2CN1C(=O)c1ccccc1"
result = 0.724

[[record]]
molecule = "O=C(N1CCOCC1)[C@@]1(CCS(=O)(=O)c2ccccc2)COC(c2ccc(OCCCO)cc2)=N1"
result = -0.176

[[record]]
molecule = "O=C(CS)NCCCCCNC(=O)[C@@H]1C[C@@H]2C(=O)N3CCC[C@H]3C(=O)N2[C@@H]1c1ccc(O)cc1"
result = 1.26

[[record]]
molecule = "CCN(CC)c1ccc(N2CC=CC34O[C@@H]5/C=C\\CCCOC(=O)C5[C@H]3C(=O)N(CCCCCCO)[C@@H]4C2=O)cc1 (stereo partly drawn)"
result = -1.21

[[record]]
molecule = "COc1ccc([Si](C)(C)[C@H]2[C@H](CCO)O[C@@]3(C(=O)N(Cc4cccc(N5CCOC5=O)c4)c4ccccc43)[C@@H]2C)cc1"
result = 0.433

[[record]]
molecule = "[N-]=[N+]=NCc1ccccc1C[C@]1(C(=O)NCCN2CCOCC2)N=C(c2ccc(OCCCO)cc2)O[C@H]1c1ccccc1"
result = 1.39

[[record]]
molecule = "CC(C)CCC[C@@H](C)[C@H]1CC[C@@]2(C)C3=C(CC[C@]12C)[C@@]1(C)CC[C@H](OC(=O)C(C)(C)C)C(C)(C)C1CC3 (stereo partly drawn)"
result = 0.828

[[record]]
molecule = "CCCN1C(=O)[C@@H]2Cc3c([nH]c4ccccc34)[C@@H](c3cccc(O)c3)N2C1=O"
result = 0.374

[[record]]
molecule = "COC(=O)C(CC#Cc1ccc2c(c1)[C@]1(C(=O)N2)[C@H](c2ccc(OCCO)cc2)N2[C@H](c3ccccc3)[C@H](c3ccccc3)OC(=O)[C@H]2[C@@H]1C(=O)O)C(=O)OC"
result = 0.915

[[record]]
molecule = "Cc1ccc(C(C)CC(O)C2C=CC3C(=O)N(Cc4ccccc4)C(=O)C3N2n2cnnc2)o1 (stereo not drawn)"
result = 0.713


====

Assay protocol: blockers of DNA damage checkpoint Chk1 activation – imaging, HeLa, hydroxyurea, phospho-Chk1 nuclear intensity, primary screen (AID 1187); further: test concentration not given here
Experimental conditions: hydroxyurea-induced phospho-Chk1 immunofluorescence imaging, higher = more signal
Observable: z-score

[[record]]
smiles_record = "CCOC(=O)C[C@H]1[C@H](OC(=O)Cc2ccc3c(c2)OCO3)[C@@H](NC(=O)c2ccccc2)c2cc(OCCCO)ccc2N1C(=O)c1ccccc1"
numeric_result = -0.342

[[record]]
smiles_record = "CC(C)(C)OC(=O)CC[C@]1(C(=O)N2CCCCC2)N=C(c2ccc(OCCCO)cc2)O[C@H]1c1ccccc1CN=[N+]=[N-]"
numeric_result = -0.917

[[record]]
smiles_record = "COCCOC(=O)N1C(=O)[C@@]2(c3cc(C#CCCO)ccc31)[C@H](C(=O)N1CCc3cc(OC)c(OC)cc3C1)[C@H]1C(=O)O[C@H](c3ccccc3)[C@H](c3ccccc3)N1[C@@H]2c1ccc(OCCO)cc1"
numeric_result = -0.0047

